B1: FANCE (parent)
chain: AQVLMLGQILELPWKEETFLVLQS

- Variants of: B1
- assay comment: protein stability index of a GFP-peptide fusion (GPS, HEK-293T) (PSI 1-6); higher = more stable;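 further: lentivirally expressed fusions sorted by FACS into six bins by GFP to DsRed ratio, PSI derived from sequencing read proportions per bin multiplied by bin number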
- cond: c terminus: a fixed tail appended
Each entry below lists one item and its recorded protein stability index value.
Note: the reply should be a number with no unit written.

[
  {
    "mutation": "I9C",
    "measured parameter": "protein stability index",
    "number": 2.36
  },
  {
    "mutation": "L12M",
    "measured parameter": "protein stability index",
    "number": 3.18
  },
  {
    "mutation": "L4A",
    "measured parameter": "protein stability index",
    "number": 2.02
  },
  {
    "mutation": "V3K",
    "measured parameter": "protein stability index",
    "number": 1.32
  }
]

# input for lookup
Task item: Query: protein stability index; subject: V21E
Reply: 2.57
